The measured values listed here are drawn from patent US20250296942A1.

Test: AlamarBlue cytotoxicity, RISE and nano-Ca@RISE, hFOB 1.19
Type: cell-based, human
Conditions: human, hFOB 1.19 osteoblast cells; hFOB 1.19; 45 μM; 48 h; read-out: Relative cell viability (% RCL)
readout.name: viability at 48 h, 45 µM (%)

> print(dat)
                                   molecule  output.unit  observed
1  O=P(O)(O)C(O)(Cc1cccnc1)P(=O)(O)O [RISE, Monosodium risedronate hemipentahydrate]            %       100

###

Test: AlamarBlue cytotoxicity, RISE and nano-Ca@RISE, hFOB 1.19
Format: cell-based, human
Conditions: human, hFOB 1.19 osteoblast cells; hFOB 1.19; 45 μM; 72 h; read-out: Relative cell viability (% RCL)
readout.name: viability at 72 h, 45 µM (%)

> print(dat)
                                   compound              readout.name  observed
1  O=P(O)(O)C(O)(Cc1cccnc1)P(=O)(O)O [RISE, Monosodium risedronate hemipentahydrate]  viability at 72 h, 45 µM        99

###

Test system: human breast cancer MDA-MB-231 cell line
Assay: AlamarBlue cytotoxicity, 2,2′-BPBPA series, MDA-MB-231
Type: cell-based
Details: 24, 48, 72 h
Experimental: Cell culture methods. MCF-7 and MDA-MB-231 were incubated using DMEM at 37° C. in 5% CO2. The hFOB 1.19 cell lines were incubated with DMEM: F12 at 34° C. in 5% CO2. Cell lines were supplemented using 10% FBS and 1% Pen-Strep. […] Control groups were treated with media (DMEM or DMEM: F12) supplemented with 1% Pen-Strep. Cell viability was determined by employing AlamarBLue@. […] After 24 h of incubation, the fluorescence was assessed at )max of 560 nm for excitation and 590 nm for emission. […]
pIC50: −log10 of the molar value.
readout.name: pIC50

> print(dat)
                                   compound  observed
1  O=P(O)(O)c1ccc(-c2ccc(P(=O)(O)O)cn2)nc1 [2,2′-BPBPA, 2,2′-bipyridine-5,5′-bisphosphonic acid]    < 3.70

###

System: human breast cancer MDA-MB-231 cell line
Assay: AlamarBlue cytotoxicity, ZOLE and nano-Ca@ZOLE, MDA-MB-231
Type: cell-based
Details: Homo sapiens, 24 h
pIC50: −log10 of the molar value.
readout.name: pIC50

> print(dat)
                         mol.smiles  observed
1  O=P(O)(O)C(O)(Cn1ccnc1)P(=O)(O)O    < 3.70

###

Test: AlamarBlue cytotoxicity, RISE and nano-Ca@RISE, hFOB 1.19
Type: cell-based, human
Settings: human, hFOB 1.19 osteoblast cells; hFOB 1.19; 50 μM; 48 h; read-out: Relative cell viability (% RCL)
Experimental: Cell culture methods. The MDA-MB-231 cell line was incubated with DMEM, 1% Pen-Strep, and 10% FBS at 37° C. in 5% CO2. The hFOB 1.19 cell line was incubated with 1:1 DMEM:F-12, 0.3 mg/mL G418, and 10% FBS at 34° C. in 5% CO2. Cell passages were performed weekly at 80% of cell confluency, media was exchanged twice a week. Cell treatments. […] After the AlamarBlue® assay, the fluorescence (λexc=560 nm, λem=590 nm) was evaluated employing an Infinite M200 PRO Tecan Microplate Reader. […]
readout.name: viability at 48 h, 50 µM (%)

> print(dat)
                                   compound  observed
1  O=P(O)(O)C(O)(Cc1cccnc1)P(=O)(O)O [RISE, Monosodium risedronate hemipentahydrate]        96
